# ASSAY SYSTEM: Neuronal acetylcholine receptor subunit alpha-7 (Rattus norvegicus, UniProt Q05941)
# Sequence (Q05941 whole entry): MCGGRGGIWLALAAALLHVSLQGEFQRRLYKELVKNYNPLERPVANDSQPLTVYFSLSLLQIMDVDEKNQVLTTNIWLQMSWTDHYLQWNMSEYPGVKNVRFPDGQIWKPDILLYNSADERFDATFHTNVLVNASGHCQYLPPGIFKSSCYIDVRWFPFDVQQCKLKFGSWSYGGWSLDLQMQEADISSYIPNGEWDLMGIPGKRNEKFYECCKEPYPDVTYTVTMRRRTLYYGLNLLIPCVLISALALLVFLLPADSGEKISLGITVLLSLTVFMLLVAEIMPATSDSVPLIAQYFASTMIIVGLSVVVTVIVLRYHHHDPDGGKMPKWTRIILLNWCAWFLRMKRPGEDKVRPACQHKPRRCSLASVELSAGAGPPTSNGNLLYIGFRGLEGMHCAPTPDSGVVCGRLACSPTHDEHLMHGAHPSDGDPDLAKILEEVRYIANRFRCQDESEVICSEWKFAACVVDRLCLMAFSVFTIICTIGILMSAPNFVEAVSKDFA
# TEST PROTOCOL: Displacement of [125I]iodo-MLA from alpha-7 nAChR in rat cerebral cortex
pKi: −log10 of the molar value.
READOUT TYPE: pKi

In [3]: df
Out[3]:
           compound  experimental_value
0  CN(C)CCOc1ccccc1              < 5.00

# input Lab note: need pKi for C[N+](C)(C)CCOc1cccnc1 on Neuronal acetylcholine receptor subunit alpha-7 (Rattus norvegicus, UniProt Q05941), anyone have it?
# output 6.55

# input Further, for CN(C)CCOc1cccnc1 ?
# output < 5.00

# input Further, for CN(C)CCOc1ccc(/C=C/c2ccccc2)cc1 ?
# output < 5.00

###

Property: pKi; scope: individual compounds
# ASSAY SYSTEM: Neuronal acetylcholine receptor subunit alpha-7 (Rattus norvegicus, UniProt Q05941)
# TEST PROTOCOL: Displacement of [125I]iodo-MLA from alpha-7 nAChR in rat cerebral cortex
pKi: −log10 of the molar value.

Examples from the recorded data:
>>> df
                                 compound  experimental_value
0                        CNC/C=C/c1cccnc1              < 5.00
1  CN1CCCC1c1ccc(CCc2ccccc2)nc1 (racemic)              < 5.00
2                           CNCCCc1cccnc1              < 5.00
3                  C[N+](C)(C)CCOc1ccccc1                5.96
4                           CNCCOc1cccnc1              < 5.00

# input Look up pKi for this compound: C[N+](C)(C)CCCOc1cccnc1
# output < 5.00

# input Further, for CCN(C)CCOc1cccnc1 ?
# output < 5.00

# input Further, for C[N+](C)(C)CCOc1ccc(CCc2ccccc2)cc1 ?
# output 5.12

# input Further, for C[N+](C)(C)CCOc1ccc(CCc2ccccc2)nc1 ?
# output 5.36

# input Further, for CNC/C=C\c1cccnc1 ?
# output < 5.00

# input Further, for CN(C)CCOc1ccc(/C=C/c2ccccc2)nc1 ?
# output < 5.00

# input Further, for C[N+](C)(C)CCOc1ccc(/C=C/c2ccccc2)cc1 ?
# output 5.66

# input Further, for CN(C)CCOc1ccc(CCc2ccccc2)nc1 ?
# output < 5.00

# input Further, for CN(C)CCOc1ccc(CCc2ccccc2)cc1 ?
# output < 5.00

# input Further, for C[N+](C)(C)CCOc1ccc(/C=C/c2ccccc2)nc1 ?
# output 5.90
